# study-target: Rb:Raf-1 binding (Homo sapiens, UniProt P04049+P06400)
# Construct: a glutathione S-transferase (GST) Raf-1 (1-149aa) overnight at 4° C; made in house
# Sequence (P04049 1-149 limits assumed): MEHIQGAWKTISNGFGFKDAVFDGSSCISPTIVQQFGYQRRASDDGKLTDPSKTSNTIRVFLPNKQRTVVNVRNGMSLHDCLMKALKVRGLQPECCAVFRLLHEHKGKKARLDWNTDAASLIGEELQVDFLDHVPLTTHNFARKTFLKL
# Sequence (P06400 whole entry): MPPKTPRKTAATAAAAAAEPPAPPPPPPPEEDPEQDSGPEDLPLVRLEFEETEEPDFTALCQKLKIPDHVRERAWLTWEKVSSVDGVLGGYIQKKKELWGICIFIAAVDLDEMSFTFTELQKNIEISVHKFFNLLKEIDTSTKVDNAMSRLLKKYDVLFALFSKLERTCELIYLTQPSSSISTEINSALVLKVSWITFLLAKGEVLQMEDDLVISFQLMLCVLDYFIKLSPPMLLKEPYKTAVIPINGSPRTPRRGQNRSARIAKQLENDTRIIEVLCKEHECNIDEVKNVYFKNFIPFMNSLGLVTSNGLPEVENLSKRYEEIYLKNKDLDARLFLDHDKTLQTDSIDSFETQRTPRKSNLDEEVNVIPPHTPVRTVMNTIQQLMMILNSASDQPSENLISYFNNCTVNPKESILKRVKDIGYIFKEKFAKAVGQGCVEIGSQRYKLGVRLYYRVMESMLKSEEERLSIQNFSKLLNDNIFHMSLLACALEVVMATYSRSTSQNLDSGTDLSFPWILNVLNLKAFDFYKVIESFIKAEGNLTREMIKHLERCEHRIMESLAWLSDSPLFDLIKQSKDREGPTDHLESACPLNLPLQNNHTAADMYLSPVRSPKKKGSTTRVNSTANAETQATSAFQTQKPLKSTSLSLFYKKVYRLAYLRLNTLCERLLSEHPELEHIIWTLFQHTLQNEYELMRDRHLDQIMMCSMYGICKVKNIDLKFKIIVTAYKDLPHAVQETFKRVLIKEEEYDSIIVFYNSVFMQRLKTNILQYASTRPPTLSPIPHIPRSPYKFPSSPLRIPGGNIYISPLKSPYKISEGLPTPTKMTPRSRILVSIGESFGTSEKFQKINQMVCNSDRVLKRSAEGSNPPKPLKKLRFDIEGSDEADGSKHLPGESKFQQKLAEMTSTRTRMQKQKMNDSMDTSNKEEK
# assay-comment: GST-Rb/GST-Raf-1 ELISA
# test-parameters: inhibition of Rb:Raf-1 binding, compound at 20 μM; read-out: % Inhibition at 20 μM
Would you mind sorting the entries by inhibition at 20 µM according to these classes? low end: < 30%; middle: ≥ 30% and < 50%; high end: ≥ 50%

Below are worked cases with known answers.
[[record]]
molecule = "Nc1nc(-c2ccc(F)cc2)cs1"
assigned_class = "middle"

[[record]]
molecule = "Clc1ccc(CSC2=NCCN2)c(Cl)c1"
assigned_class = "middle"

[[record]]
molecule = "CNc1scc(-c2ccccc2)[n+]1C"
assigned_class = "low end"

[[record]]
molecule = "Clc1ccc(CSc2nnc[nH]2)c(Cl)c1"
assigned_class = "high end"

[[record]]
molecule = "Cl.N=C(N)SCc1c(Cl)cccc1Cl"
assigned_class = "low end"

[[record]]
molecule = "N=C(N)SCc1ccc(C(F)(F)F)cc1C(F)(F)F"
assigned_class = "high end"

[[record]]
molecule = "CC(C)(C)c1ccc(CSC(=N)N)cc1"
assigned_class = "high end"

[[record]]
molecule = "N=C(N)SC(Cc1ccccc1)c1ccc(Cl)cc1Cl (centres unmarked)"
assigned_class = "middle"


Prompt line: Assign a bin to CC(SC(=N)N)c1ccc(Cl)c(Cl)c1 (centres unmarked)
Response line: high end

Prompt line: Assign a bin to N=C(N)SCc1ccc(C(F)(F)F)cc1
Response line: middle

Prompt line: Assign a bin to N=C(N)SCc1cccc(Cl)c1
Response line: high end
